- System: P. yoelii liver stage in HepG2-A16-CD81EGFP, imaging
- assay.explanation: exo-erythrocytic parasite development inhibition – imaging, Malaria Box, P. yoelii, HepG2-A16-CD81EGFP, dose response (AID 602156);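 also: infected cells exposed to compound for 48 hours before fixation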
Activity calls are given as the source filed them. No rule for the calls is given here.
measurement.name: IC50

In [3]: df
Out[3]:
                                    molecule  measurement_name                 result
 0   COc1ccc(Nc2nc(NCc3ccccc3)c3ccccc3n2)cc1              IC50                 305 nM
 1  O=C(c1cc2nc(-c3ccccc3)cc(C(F)(F)F)n2n1)N1CCN(Cc2ccccc2)CC1              IC50  > 10000 nM (inactive)
 2  COc1ccc2cc3[n+](cc2c1OC)CCc1cc2c(cc1-3)OCO2              IC50                 548 nM
 3    CCN1C(=Cc2cc[n+](C)cc2)C=Cc2cc(C)ccc21              IC50                 170 nM
 4    CC[n+]1c(C=C2C=C(C)OC(C)=C2)sc2ccccc21              IC50                 245 nM
 5  COC(=O)c1ccc(C2C3=C(CC(c4ccco4)CC3=O)Nc3ccccc3N2C(=O)c2ccccc2)cc1 (stereo not drawn)              IC50   > 4780 nM (inactive)
 6  CC(C)(C)OC(=O)N1CCC(c2c(C(=O)Nc3cccc(C(F)(F)F)c3)cnn2-c2ccc(F)cc2F)CC1              IC50                3120 nM
 7            c1ccc(Nc2ccnc(Nc3ccccc3)n2)cc1              IC50                1480 nM
 8              CCCCc1c(CCC)c(=N)c2ccccc2n1C              IC50                 244 nM
 9                  Cc1[nH]c2ccccc2c(=O)c1Br              IC50                 214 nM
10  CC(=O)N(C1=C(N(C)C)C(=O)c2ccccc2C1=O)c1ccc(F)cc1              IC50                57.3 nM
11  CCOc1ccc(CN(C(=O)COc2ccc(Cl)cc2)C(C)CCCN(CC)CC)cc1 (stereo not drawn)              IC50                20.4 nM
12  CCOc1ccc(N(C(=O)C2COc3ccccc3O2)C(C(=O)NC2CCCCC2)c2cn(C)nc2C)cc1 (stereo not drawn)              IC50  > 10000 nM (inactive)
13  O=C1C2=C(Nc3ccccc3SC2c2ccccc2)c2ccccc21 (stereo not drawn)              IC50                93.7 nM
14  Cc1cc(C(=O)Nc2cnn(Cc3ccc(Cl)cc3Cl)c2)no1              IC50                 335 nM
15     COc1ccccc1Nc1nc(NCc2ccccc2)c2ccccc2n1              IC50                91.3 nM
16  O=C(c1ccc2nc(N3CCCCC3)sc2c1)N1CCN(Cc2ccc3c(c2)OCO3)CC1              IC50   > 9220 nM (inactive)
17  COC(=O)c1c(-c2c(Cl)cccc2Cl)noc1NC(=O)NN1CCCCC1              IC50                 647 nM
18    C/C=C/[P+](c1ccccc1)(c1ccccc1)c1ccccc1              IC50                49.4 nM
19             O=C(O)Cn1cnc2nc3n(c2c1=O)CCC3              IC50    > 765 nM (inactive)
20     N=c1c2c(n(Cc3ccc(Cl)cc3)c3c1CCC3)CCC2              IC50                91.1 nM
21  CCN1C(=O)N(CC)C(NNC(N)=S)C1NNC(N)=S (stereo not drawn)              IC50                68.6 nM
22                      COC(OC)C(C)=NNC(N)=S              IC50                4.93 nM
